Dear all, I have gathered published Kd values for Retinoic acid receptor alpha (Homo sapiens); the list follows.

Take a look at these entries with their results.
Cc1cc(C#Cc2ccc(CC(=O)O)cc2)ccc1Cn1ccnc1
> 10 µM
Cc1ccc(N2C(=O)CC(C)(C)c3ccc(C#Cc4ccc(C(=O)O)cc4)cc32)cc1
0.059 µM
Cc1cc(C#Cc2ccc(CC(=O)O)cc2)ccc1C1(OCc2ccccc2)CC1
> 10 µM

In the following, a different compound is considered.
Q: Send back Retinoic acid receptor alpha (Homo sapiens) Kd of CC(/C=C/[C@@H]1C[C@]1(C)c1ccc2c(c1)C(C)(C)CC(=O)N2C(C)C)=C\C(=O)O only.
A: > 10 µM
